B1: library; a variant is named by its letters at N, in order (parent)
chain: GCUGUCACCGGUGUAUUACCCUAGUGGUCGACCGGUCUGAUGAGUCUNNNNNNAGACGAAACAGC

variants of: B1; assay: normalized RNA/DNA level without ligand (relative to sTRSVctl = 100) (log10 (% of sTRSVctl)); ligand: hypoxanthine (xanthine aptamer); higher = less ribozyme self-cleavage, higher mRNA level; details: HEK293T, reporter: mCherry (pCS4076), ligand present: no
observation type: normalized RNA/DNA level without ligand (log10)
The answer should be a number; do not append a unit.

See these solved cases before continuing.
GCCUAC
1.76
GAUCAA
1.83
GCAGGC
1.65

Query (variant): `AAUGCG` ; field requested: normalized RNA/DNA level without ligand (log10) 1.42

Recorded values, source the supplement of paper PMC6757056.
